Readings of melting point for the listed compounds

As a guide, the following entries are already answered.
INSERT INTO assay_data (compound, measured_value) VALUES
  ('CC(C)(C)OC(=O)/C=C1\SC(Nc2c(Cl)cccc2Cl)=NC1=O (hydrate or solvate)', '> 230 °C'),
  ('COC(=O)/C=C1\SC(Nc2c(Cl)cccc2Cl)=NC1=O (hydrate or solvate)', '189.1 to 189.7 °C'),
  ('O=C(/C=C1\SC(Nc2c(Cl)cccc2Cl)=NC1=O)NCc1ccccc1', '204.8 to 205.6 °C');

// query Fill in: melting point of CCOC(=O)/C=C1\SC(Nc2c(Cl)cccc2Cl)=NC1=O (hydrate or solvate) is ___
// result 185 to 185.8 °C

// query Fill in: melting point of O=C(O)/C=C1\SC(Nc2c(Cl)cccc2Cl)=NC1=O is ___
// result > 230 °C

----------
Target: human Branched Chain Amino Acid Aminotransferase cytosolic form (hBCATc) (Homo sapiens)
Sequence (P54687 1-386): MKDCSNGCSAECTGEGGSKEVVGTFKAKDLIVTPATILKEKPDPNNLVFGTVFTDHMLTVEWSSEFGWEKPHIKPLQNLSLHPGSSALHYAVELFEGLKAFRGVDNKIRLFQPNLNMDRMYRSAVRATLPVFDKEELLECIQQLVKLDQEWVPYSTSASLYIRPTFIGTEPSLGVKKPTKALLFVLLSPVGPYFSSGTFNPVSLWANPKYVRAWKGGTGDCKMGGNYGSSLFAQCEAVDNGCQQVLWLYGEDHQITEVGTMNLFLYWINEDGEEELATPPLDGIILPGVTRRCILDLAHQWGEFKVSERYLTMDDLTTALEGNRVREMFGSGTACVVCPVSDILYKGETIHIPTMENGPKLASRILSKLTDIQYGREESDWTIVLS
# binning rule on IC50: range 1 (below 30 µM), range 2 (30 µM to below 60 µM), range 3 (60 µM or more)

Solved cases (5 shown):
INSERT INTO results (compound, discrete_label) VALUES
  ('COC(=O)/C=C1\SC(Nc2cc(Cl)ccc2Cl)=NC1=O', 'range 1'),
  ('CN(C)C1CCN(C(=O)/C=C2\SC(Nc3c(Cl)cccc3Cl)=NC2=O)C1 (centres unmarked)', 'range 3'),
  ('CCCN(CC1CC1)C(=O)/C=C1\SC(Nc2c(Cl)cccc2Cl)=NC1=O', 'range 1'),
  ('CCN1CCN(C(=O)/C=C2\SC(Nc3c(Cl)cccc3Cl)=NC2=O)CC1', 'range 3'),
  ('COC(=O)/C=C1\SC(Nc2c(Cl)cccc2Cl)=NC1=O', 'range 1');

// query Just checking, what class would you give O=C(/C=C1\SC(Nc2c(Cl)cccc2Cl)=NC1=O)NCC(O)CO (centres unmarked) here?
// result range 3

// query Just checking, what class would you give COC(=O)/C=C1\SC(Nc2ccccc2Cl)=NC1=O here?
// result range 1

// query Just checking, what class would you give C=C(C)CNC(=O)/C=C1\SC(Nc2c(Cl)cccc2Cl)=NC1=O here?
// result range 2

// query Just checking, what class would you give O=C(/C=C1\SC(Nc2c(Cl)cccc2Cl)=NC1=O)NC1CCCCC1 here?
// result range 1

// query Just checking, what class would you give O=C(/C=C1\SC(Nc2c(Cl)cccc2Cl)=NC1=O)NCCOc1ccccc1 here?
// result range 2

// query Just checking, what class would you give O=C(/C=C1\SC(Nc2c(Cl)cccc2Cl)=NC1=O)NCCCN1CCCC1 here?
// result range 2

// query Just checking, what class would you give COC(CNC(=O)/C=C1\SC(Nc2c(Cl)cccc2Cl)=NC1=O)OC here?
// result range 2

// query Just checking, what class would you give CSCCCNC(=O)/C=C1\SC(Nc2c(Cl)cccc2Cl)=NC1=O here?
// result range 2
